Source: patent US7514448B2

# TARGET OR SYSTEM: ROCK (Homo sapiens, UniProt Q13464)
# Sequence (Q13464 whole entry): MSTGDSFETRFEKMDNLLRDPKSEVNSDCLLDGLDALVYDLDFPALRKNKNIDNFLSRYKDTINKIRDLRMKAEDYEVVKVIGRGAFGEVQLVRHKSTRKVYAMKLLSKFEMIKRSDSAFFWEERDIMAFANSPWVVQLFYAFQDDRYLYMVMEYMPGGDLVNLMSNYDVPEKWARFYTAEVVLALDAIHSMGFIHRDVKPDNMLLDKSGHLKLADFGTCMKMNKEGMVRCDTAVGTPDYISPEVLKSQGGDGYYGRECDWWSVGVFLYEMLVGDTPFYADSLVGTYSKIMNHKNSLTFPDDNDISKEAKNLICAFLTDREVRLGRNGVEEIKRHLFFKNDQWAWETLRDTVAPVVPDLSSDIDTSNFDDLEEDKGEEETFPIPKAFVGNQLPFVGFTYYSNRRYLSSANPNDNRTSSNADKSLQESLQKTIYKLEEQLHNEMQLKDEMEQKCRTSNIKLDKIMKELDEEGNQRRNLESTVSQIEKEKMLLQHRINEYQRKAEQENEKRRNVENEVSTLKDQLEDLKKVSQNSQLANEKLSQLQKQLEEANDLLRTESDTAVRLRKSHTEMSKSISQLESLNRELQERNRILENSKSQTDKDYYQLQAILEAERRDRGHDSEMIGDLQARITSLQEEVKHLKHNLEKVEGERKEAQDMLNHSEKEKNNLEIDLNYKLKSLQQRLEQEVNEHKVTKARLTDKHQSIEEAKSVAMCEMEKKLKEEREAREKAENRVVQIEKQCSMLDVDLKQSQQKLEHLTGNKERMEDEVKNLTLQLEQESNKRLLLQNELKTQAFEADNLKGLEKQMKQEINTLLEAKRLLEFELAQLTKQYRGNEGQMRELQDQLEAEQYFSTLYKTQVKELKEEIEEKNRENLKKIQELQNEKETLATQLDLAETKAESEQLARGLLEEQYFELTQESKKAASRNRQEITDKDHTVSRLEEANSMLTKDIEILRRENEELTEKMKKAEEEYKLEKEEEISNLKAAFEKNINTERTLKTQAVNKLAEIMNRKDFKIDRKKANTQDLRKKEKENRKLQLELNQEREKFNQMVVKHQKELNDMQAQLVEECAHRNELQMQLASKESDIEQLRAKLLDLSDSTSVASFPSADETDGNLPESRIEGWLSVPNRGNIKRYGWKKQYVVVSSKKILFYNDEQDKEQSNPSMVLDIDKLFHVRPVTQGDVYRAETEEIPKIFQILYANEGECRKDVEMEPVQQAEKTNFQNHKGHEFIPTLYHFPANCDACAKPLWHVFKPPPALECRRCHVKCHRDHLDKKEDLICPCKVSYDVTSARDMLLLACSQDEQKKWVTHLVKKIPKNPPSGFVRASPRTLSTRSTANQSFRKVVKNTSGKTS
# TEST DETAILS: ROCK radioactive assay ("33P")
# Format: biochemical
# PARTICULARS: radioactive assay; average Ki if more than one determined; read-out: ROCK 33P Ki
pKi: −log10 of the molar value.
MEASUREMENT LABEL: pKi

Would you please look over these solved cases?
[[record]]
compound = "CN(C)C(=O)Nc1nc(-c2c[nH]c3ncccc23)cs1"
target_or_system = "ROCK (Homo sapiens, UniProt Q13464)"
reported_value = "5.30 to 6.30"

[[record]]
compound = "CS(=O)(=O)Nc1cccc(CNC(=O)c2csc(-c3c[nH]c4ncccc34)c2)c1"
target_or_system = "ROCK (Homo sapiens, UniProt Q13464)"
reported_value = "> 6.30"

[[record]]
compound = "O=C(Nc1nc(-c2c[nH]c3ncccc23)cs1)N1CCNCC1"
target_or_system = "ROCK (Homo sapiens, UniProt Q13464)"
reported_value = "5.30 to 6.30"

[[record]]
compound = "CC(=O)NCCC(=O)Nc1nc(-c2c[nH]c3ncccc23)cs1"
target_or_system = "ROCK (Homo sapiens, UniProt Q13464)"
reported_value = "> 6.30"


Lab note: next compound to report on.
Please look up its pKi: CC(C)C(O)C(=O)Nc1nc(-c2c[nH]c3ncccc23)cs1 (centres unmarked) > 6.30
